experiment: protein stability index of a GFP-peptide fusion (yeast GPS) (PSI 1-4); higher = more stable; sorted into four equal gates, so the index is relative within each strain; settings: ubr1∆
ENDPOINT: protein stability index
Would you mind answering with just the numeric figure?

Prompt line: Specify measured protein stability index for QPKGVILYGPPGTGKTL [RPT6] .
Response line: 2.95

Prompt line: Please give the documented protein stability index of TSCTIPKAVVDHINGSG [GAL11]
Response line: 1.79

Prompt line: Identify the reported protein stability index for the following entry. FEDSMQFKKLTHAQRTG [PRP8]
Response line: 2.99

Prompt line: Report protein stability index, nothing else, for this sequence: MNVSTSTFQTRRRRLKK [RPB4]
Response line: 3.38

Prompt line: Retrieve protein stability index measured for PPQAGDRSLADDYDYVM [RPB8] and print it.
Response line: 3

Prompt line: Please give measured protein stability index of the following entry: QVVTTVASQSPHATATE [SNF6]
Response line: 2.79

Turning now to a further sequence:
Prompt line: Identify protein stability index associated with the sequence EEVVSNDEGVWDLVDER [PRP8]
Response line: 3.49

###

assay: protein stability index of a GFP-peptide fusion (yeast GPS) (PSI 1-4); higher = more stable; sorted into four equal gates, so the index is relative within each strain; conditions: ubr1∆
ENDPOINT: protein stability index

Worked examples, 5 sequences total:
Prompt line: Report measured protein stability index; entry is EAEIECFDSTTGRDAGF [RRP40]
Response line: 3.2

Prompt line: Write down protein stability index measured for item LKTLTHKQIHTTIFVKS [POP7]
Response line: 1.82

Prompt line: Hello, please tell me recorded protein stability index for this one: FLQDKVQIKDVNDRYQI [CSI1]
Response line: 3.37

Prompt line: # return recorded protein stability index for input SGEDAEEELWNSPSKGN [YIL149C/MLP2]
Response line: 3.21

Prompt line: Read the entry SSWQIYSDENDPSISNN [RRP4] and write its reported protein stability index.
Response line: 3.33

New cases:
Prompt line: Give the value of protein stability index reported for the following: TKRESLNARMFLKYYGA [SIR2]
Response line: 2.6

Prompt line: Item PHDLIIGTADIFIRQLK [BRR2] : provide protein stability index
Response line: 2.49

###

assay: protein stability index of a GFP-peptide fusion (yeast GPS) (PSI 1-4); higher = more stable; sorted into four equal gates, so the index is relative within each strain; details: san1∆
ENDPOINT: protein stability index
No unit in the answer, only the number.

Prompt line: Identify protein stability index associated with the sequence KGTEASNDIIDKPYLLR [YDL116W/NUP84]
Response line: 3.34

Prompt line: Answer with the recorded protein stability index of PLKIHRTPYLTSLKKIK [SWI1] only.
Response line: 1.75

Prompt line: Query protein stability index for KPFGSAKSDETKQASSF [YLR335W/NUP2]
Response line: 1.92

Turning to the following sequence.
Prompt line: Fill in reported protein stability index for this entry: EILTNQQRGITYLNEVL [YGR119C/NUP57]
Response line: 3.12

###

experiment: protein stability index of a GFP-peptide fusion (yeast GPS) (PSI 1-4); higher = more stable; sorted into four equal gates, so the index is relative within each strain; details: san1∆
ENDPOINT: protein stability index
A bare number is all that is needed in reply.

Prompt line: Provide one value: measured protein stability index of QFEVSDDEKNDKQARKQ [SNF2]
Response line: 3.06

Prompt line: State its protein stability index: EDLLHYIEEKHPTIYES [POP4]
Response line: 3.37

Prompt line: Report protein stability index for NNVDNKYKSGGKFSFSP [SSN2]
Response line: 2.63

Prompt line: Input QNPMRDLKIEKLVLNIS [RPL11A] , output reported protein stability index.
Response line: 3.33

Prompt line: Consider the sequence KFDIIIVDTSGRHHQEE [SRP54] . State its measured protein stability index.
Response line: 2.71

Prompt line: Quote protein stability index reported for FFAYFIGWCKEDPKRRA [YJL039C/NUP192] please.
Response line: 2.61

Next:
Prompt line: Output protein stability index of AFKHKRALVEHIIQAKA [RPL19A]
Response line: 3.19

Prompt line: Return the recorded protein stability index value; entry: PSPYKTTVYRYSAAKKI [YAR002W/NUP60]
Response line: 1.49

Prompt line: Report protein stability index for HFPINVNIVEKDGAKFI [RPL9A]
Response line: 2.53

Prompt line: Return the recorded protein stability index value; entry: KPYDINVVLVTNDRLNR [DIS3]
Response line: 2.96

Prompt line: Recall and state the measured protein stability index for KYSDILLKKATKPEVAS [CDC53] .
Response line: 2.47

###

Listed next: entries and their corresponding protein stability index.
experiment: protein stability index of a GFP-peptide fusion (yeast GPS) (PSI 1-4); higher = more stable; sorted into four equal gates, so the index is relative within each strain; details: pdr5∆
Format: numeric value only, no unit, no commentary.

Answered examples (2):
Prompt line: Given the sequence SLEQRQEVTKFAKANIG [RPN4] , write its reported protein stability index.
Response line: 2.98

Prompt line: Given NTNELKEVSSFLMGIFN [MTR3] , respond with its protein stability index.
Response line: 3.06

---
Prompt line: Quick one: give measured protein stability index for ENEISSLLAMHKHNIMK [CDC53]
Response line: 2.99

Prompt line: Please list protein stability index recorded for the sequence DKYHEQWIKFLLHTLYL [SSN8]
Response line: 2.2

Prompt line: Indicate the recorded protein stability index value for this sequence: IVGPDLAVLALVIVKKG [RPS6A]
Response line: 1.34

Prompt line: Hello, please tell me recorded protein stability index for this one: HDKNIQKLLKQLDSDAN [ISW2]
Response line: 2.52

Prompt line: Using known records, supply protein stability index for GFINQKNLKPQEQLKNV [YIL149C/MLP2]
Response line: 2.84

Prompt line: Determine its reported protein stability index: DGAYALSASWDKTLRLW [ASC1]
Response line: 3.28

Prompt line: // Input: LEEVSLKWIDTASKFGK [RPL3] . Output its protein stability index only.
Response line: 1.91

Prompt line: // fetch protein stability index given entry LVNRKPIPFEFQAVIQK [SNF2]
Response line: 2.73

###

Measured protein stability index, listed per entry.
assay: protein stability index of a GFP-peptide fusion (yeast GPS) (PSI 1-4); higher = more stable; sorted into four equal gates, so the index is relative within each strain; settings: san1∆
Please respond with just the number, no unit label.

Observe how each entry below is paired with its result.
Prompt line: Indicate its recorded protein stability index; the sequence in question is LRSTEYSKSFEQFKMVS [POP1]
Response line: 2.49

Prompt line: Check the records and state protein stability index for HDKNIQKLLKQLDSDAN [ISW2]
Response line: 2.69

Prompt line: Read off the recorded protein stability index for SRPGQSGRCDGYILEGE [RPS8A]
Response line: 3.3

Prompt line: Quickly give me recorded protein stability index for RSMDAEQLGHASKRHKP [RPP1]
Response line: 2.73

Prompt line: Find the measured protein stability index of IDEAHRIKNEQSALSQI [ISW2] and report it.
Response line: 1.67

Prompt line: Check the records and state protein stability index for PQDDDSQSKMMSSQISS [MTR3]
Response line: 3.15

New cases:
Prompt line: Given the sequence DSLSVPKVSAGDSGISP [SIR4] , write its reported protein stability index.
Response line: 3.02

###

assay: protein stability index of a GFP-peptide fusion (yeast GPS) (PSI 1-4); higher = more stable; sorted into four equal gates, so the index is relative within each strain; settings: doa10∆
Lab note: compare protein stability index against 3. Equal or greater, write class 1. Smaller, write class 0.

Prompt line: Hello, I need to know if KNGAQDLVLQILEDTAT [RRI2] has measured protein stability index not below 3. Thanks!
Response line: class 1

Prompt line: Assess whether reported protein stability index for RAQVLSLGDGTNYYLTT [CSL4] sits at 3 or higher.
Response line: class 0

Continuing:
Prompt line: # bool: protein stability index of MTLEDNNVTSNPSEFTP [SSN2] >= 3
Response line: class 0

Prompt line: Hello, I need to know if VSQMVAVVGQQIISGNR [RPO31] has measured protein stability index not below 3. Thanks!
Response line: class 1

Prompt line: Answer whether protein stability index of FTDENTIVLSLNVKCTR [RPC40] is greater than or equal to 3.
Response line: class 1

Prompt line: Check the entry RQTLAPYAVLSQFYELR [YJR042W/NUP85] : does protein stability index equal or exceed 3?
Response line: class 0

Prompt line: Could you verify whether the entry VPTGGASSAAAGAAGAA [RPP2B] shows protein stability index of no less than 3?
Response line: class 0

Prompt line: Exam item: decide whether the reported protein stability index for NVFGTLQRHSGISSTLV [YLR018C/POM34] is at least 3.
Response line: class 0

Prompt line: Reported protein stability index reaches at least 3 for LPLQPIEIDYTVRVDKA [SNF12] ?
Response line: class 0
